Reference source for all entries: patent US7713994B2

experiment: I.V. and P.O. Dosing in Mice; format: in vivo; details: mouse, in vivo, po, 50 mg/kg, po 50 mg/kg vs i.v. 2 mg/kg
Quantity Kind: bioavailability (%)

>>> print(df.to_string())
                            molecule_smiles    quantity_kind  unit_abbrev  value
0  CCCOc1cnc(CNC=C2C(=O)NC(=O)c3ccc(I)cc32)cc1O  bioavailability            %    6.3
1  O=C1NC(=O)c2ccc(I)cc2/C1=C/NCc1ccn(-c2ccoc2)c(=O)c1  bioavailability            %     17
2  O=C1NC(=O)c2ccc(I)cc2/C1=C/NCc1cc(O)c(-c2ccoc2)cn1  bioavailability            %    0.9
3  O=C1NC(=O)c2ccc(I)cc2/C1=C/NCc1ccn(-c2ccccc2)c(=O)c1  bioavailability            %   0.07
